Provide the reported IC50 of each item.
TARGET: hα2A receptor (Homo sapiens, UniProt P08913)
Construct: expressed in transfected cells; host or cells: CHO cells, stably transfected; membrane preparation
Sequence (P08913 whole entry): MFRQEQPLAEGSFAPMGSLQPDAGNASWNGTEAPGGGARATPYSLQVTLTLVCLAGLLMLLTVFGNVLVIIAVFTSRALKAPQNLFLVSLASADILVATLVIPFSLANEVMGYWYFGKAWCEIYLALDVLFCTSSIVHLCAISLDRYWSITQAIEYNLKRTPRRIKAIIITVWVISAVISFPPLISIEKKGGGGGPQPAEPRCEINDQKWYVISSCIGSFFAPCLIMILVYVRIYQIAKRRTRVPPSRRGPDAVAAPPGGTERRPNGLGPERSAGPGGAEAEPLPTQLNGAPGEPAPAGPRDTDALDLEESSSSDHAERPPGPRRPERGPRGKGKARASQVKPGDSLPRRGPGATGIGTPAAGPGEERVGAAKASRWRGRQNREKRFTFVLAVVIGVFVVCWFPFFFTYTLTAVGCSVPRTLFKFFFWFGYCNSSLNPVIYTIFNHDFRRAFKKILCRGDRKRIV
ASSAY_PROTOCOL: Radioligand binding experiment for α2A-adrenoceptor ([3H]raulwolscine, CHO cell membranes)
TEST_PARAMETERS: [3H]raulwolscine binding, read-out: h-α2A pIC50 (converted)
Please provide the amount together with its unit, number first.

IC50 of CCCC(=O)N(CCCn1ccnc(NC2CCN(C/C(C)=C/c3ccccc3)CC2)c1=O)Cc1ccccc1 , assay on hα2A receptor (Homo sapiens, UniProt P08913), is 158 nM

Case C/C(=C\c1ccccc1)CN1CCC(Nc2nccn(-c3cccc(CO)c3)c2=O)CC1 , hα2A receptor (Homo sapiens, UniProt P08913), IC50 recorded as 79.4 nM

Entry C/C(=C\c1ccccc1)CN1CCC(Nc2nccn(CC(=O)N(CCCN3CCCC3=O)Cc3ccc(F)cc3)c2=O)CC1 under hα2A receptor (Homo sapiens, UniProt P08913) had IC50 of 200 nM

Entry C/C(=C\c1ccccc1)CN1CCC(Nc2nccn(-c3ccc(C(=O)N4CCN(CCc5ccccc5)CC4)cc3)c2=O)CC1 under hα2A receptor (Homo sapiens, UniProt P08913) had IC50 of 126 nM

# IC50 measured on hα2A receptor (Homo sapiens, UniProt P08913) for item C/C(=C\c1ccccc1)CN1CCN(c2nccn(CC(=O)c3ccc(-c4ccccc4)cc3)c2=O)CC1 = 398 nM

For the molecule C/C(=C\c1ccccc1)CN1CCC(Nc2nccn(Cc3ccc(CNC(=O)NCCc4ccccc4)cc3)c2=O)CC1 , the measured IC50 on hα2A receptor (Homo sapiens, UniProt P08913) was 158 nM

Given the molecule C/C(=C\c1ccccc1)CN1CCC(Nc2nccn(Cc3ccc(-c4ccccc4)cc3)c2=O)CC1 and test system hα2A receptor (Homo sapiens, UniProt P08913), the measured IC50 is 316 nM

Form field, IC50 with hα2A receptor (Homo sapiens, UniProt P08913), item C/C(=C\c1ccccc1)CN1CCC(Nc2nccn(-c3cccc(Nc4ccc(F)cc4)c3)c2=O)CC1 : 12.6 nM
